- Tgt: interaction between Supt4h and NGN (subunit of Supt5h) (Homo sapiens, UniProt P63272)
- Assay Remarks: split Gaussia luciferase complementation assay (M2-8 cells)
- Condition: M2-8 cells, 24 hr treatment
Property Name: IC50 (nM)
Report the figure in nM without appending any unit label.

Entry Brc1ccc2[nH]c3c(c2c1)CCCC3NCc1ccccc1 (racemic) [racemic HD143] , IC50 reported as 30

According to the records, this compound Brc1ccc2[nH]c3c(c2c1)CCC[C@H]3NCc1ccccc1 [(R)-(+)-HD143] displays IC50 of 15

IC50 reading for Brc1ccc2[nH]c3c(c2c1)CCC[C@@H]3NCc1ccccc1.Cl [(S)-(−)-HD143, Hydrochloride] : 900

The measured values listed here are drawn from patent US10882821B1.
